The reported measurements were obtained from patent US9328092B2.

- experimentalProtocol: Rodent pharmacokinetic study
- Assay type: in vivo
- conditionDescription: rat, whole blood; Wistar rats/Male, 3 mg/kg, Per-Oral, blood
measuredEndpoint: AUC(0-t) (ng·h/mL)

>>> reported("O=C(C=Cc1ccc(OC2CCN(C3CCC3)CC2)cc1)N1CCOCC1.O=C(O)/C=C/C(=O)O")
176

[a] O=C(C=Cc1ccc(OC2CCN(C3CCC3)CC2)nc1)N1CCOCC1.O=C(O)C(O)C(O)C(=O)O
[b] O=C(C=Cc1ccc(OC2CCN(C3CCC3)CC2)cc1)N1CCOCC1.O=C(O)C(O)C(O)C(=O)O
[c] O=C(C=Cc1ccc(OC2CCN(C3CCC3)CC2)cc1F)N1CCOCC1.O=C(O)C(O)C(O)C(=O)O
Task: Which order do these items take when sorted by rising AUC(0-t)? List them. Your answer should be the labels, listed in the requested order.
Output: c, a, b
(c: 49 ng·h/mL, a: 184 ng·h/mL, b: 387 ng·h/mL)

* * *

- experimentalProtocol: Rodent pharmacokinetic study
- Type: in vivo
- conditionDescription: rat, whole blood; Wistar rats/Male, 3 mg/kg, Per-Oral, blood
measuredEndpoint: Cmax (ng/mL)

>>> reported("O=C(C=Cc1ccc(OC2CCN(C3CCC3)CC2)nc1)N1CCOCC1.O=C(O)C(O)C(O)C(=O)O")
128

[1] O=C(C=Cc1ccc(OC2CCN(C3CCC3)CC2)cc1)N1CCOCC1.O=C(O)/C=C/C(=O)O
[2] O=C(C=Cc1ccc(OC2CCN(C3CCC3)CC2)cc1)N1CCOCC1.O=C(O)C(O)C(O)C(=O)O
[3] O=C(C=Cc1ccc(OC2CCN(C3CCC3)CC2)cc1F)N1CCOCC1.O=C(O)C(O)C(O)C(=O)O
Task: Which order do these items take when sorted by rising Cmax? List them. Your answer should be the labels, listed in the requested order.
Output: 3, 1, 2

* * *

- experimentalProtocol: Rodent pharmacokinetic study
- Type: in vivo
- conditionDescription: rat, whole blood; Wistar rats/Male, 1 mg/kg, Intravenous, blood
- Experimental: Male Wistar rats (230-280 grams) were used as experimental animals. Three to five animals were housed in each cage. […] The concentrations of the compounds of formula (I) in blood were determined using LC-MS/MS method. […] The compounds of formula (I) were quantified in blood by validated LC-MS/MS method using acetonitrile precipitation technique. The compounds of formula (I) were quantified in the calibration range of 1-1000 ng/mL in blood. […]
measuredEndpoint: AUC(0-t) (ng·h/mL)

>>> reported("O=C(C=Cc1ccc(OC2CCN(C3CCC3)CC2)nc1)N1CCOCC1.O=C(O)C(O)C(O)C(=O)O")
173
>>> reported("O=C(C=Cc1ccc(OC2CCN(C3CCC3)CC2)cc1F)N1CCOCC1.O=C(O)C(O)C(O)C(=O)O")
167
>>> reported("O=C(C=Cc1ccc(OC2CCN(C3CCC3)CC2)cc1)N1CCOCC1.O=C(O)C(O)C(O)C(=O)O")
222
>>> reported("O=C(C=Cc1ccc(OC2CCN(C3CCC3)CC2)cc1)N1CCOCC1.O=C(O)/C=C/C(=O)O")
208

* * *

- experimentalSystem: Human or Rat Histamine H3 Receptor (UniProt Q9Y5N1)
- experimentalProtocol: Binding assay for human or rat histamine H3 receptor ([3H] R-α-methylhistamine displacement)
- conditionDescription: [3H] R-α-methylhistamine 3.0 nM; rat brain frontal cortex or recombinant human receptor in CHO cells (source for table not stated)
Counter-ions that a name gives are not always drawn.
measuredEndpoint: Ki (nM)

Known results for compounds:
>>> reported("O=C(C=Cc1ccc(OC2CCN(C3CCC3)CC2)cc1)N1CCOCC1.O=C(O)C(O)C(O)C(=O)O [Example 10]")
3.43
>>> reported("O=C(C=Cc1ccc(OC2CCN(C3CCC3)CC2)cc1)N1CCCCC1 [Example 2, hydrochloride salt]")
1.82
>>> reported("Cc1cc(OC2CCN(C3CCC3)CC2)ccc1C=CC(=O)N1CCOCC1 [Example 8]")
6.34

[1] O=C(C=Cc1ccc(OC2CCN(C3CCC3)CC2)nc1)N1CCOCC1.O=C(O)C(O)C(O)C(=O)O [Example 5]
[2] O=C(C=Cc1ccc(OC2CCN(CC3CC3)CC2)c(Br)c1)N1CCOCC1 [Example 22]
Task: When their Ki values are compared, which is larger, 1 or 2 ? Respond using the label that marks the chosen record.
Output: 2
(2: 52.6 nM, 1: 7.9 nM)

[A] O=C(C=Cc1ccc(OC2CCN(C3CCC3)CC2)c(Br)c1)N1CCOCC1 [Example 20]
[B] COc1cc(C=CC(=O)N2CCOCC2)ccc1OC1CCN(C2CCC2)CC1 [Example 11]
Task: Hi, I'm comparing two records. Which one has the lower Ki, A or B ? Respond using the label that marks the chosen record.
Output: A
